Reference source for all entries: PubChem BioAssay (NCI)

# TGI per record follows
# Test system: OVCAR-3 ovarian
# measurement_description: NCI tumour cell line growth inhibition, 48 h
assay_metric: TGI

INSERT INTO results (compound, result) VALUES
  ('Cc1cc2c(cc1-c1cc3c(cc1C)C(C(C)C)=C(O)C(=O)/C3=C\Nc1c(C)n(C)n(-c3ccccc3)c1=O)/C(=C/Nc1c(C)n(C)n(-c3ccccc3)c1=O)C(=O)C(O)=C2C(C)C', '> 100 µM'),
  ('C[C@H](CN1CC(=O)NC(=O)C1)N1CC(=O)NC(=O)C1', '> 100 µM'),
  ('CNc1ncnc2c1nnn2C', '> 100 µM'),
  ('CCOC(=O)C1=NN(c2ccc(Cl)cc2)C2=CC(C)=NN(C)C(=S)N21', '> 100 µM'),
  ('O=C(NN1C(=O)CSC1c1ccco1)c1ccncc1 (stereo not given)', '> 100 µM'),
  ('CCCCNC(=S)c1ccc(OC(=O)Nc2ccc(Cl)cc2)cc1', '> 100 µM'),
  ('COC(=O)c1ccc(NC(=O)c2cc(OC)c(OC)c(OC)c2)cc1', '7.77 µM'),
  ('CC1=C(C(=O)Nc2ccc([N+](=O)[O-])cc2)C(c2ccccc2O)C(C(=O)Nc2ccc([N+](=O)[O-])cc2)=C(C)N1', '51.4 µM'),
  ('O=C(NCCCCCCNC(=O)n1cc(F)c(=O)[nH]c1=O)NCCCOCCOCCOCCOCCOCCOCCOCCOCCOCCOCCOCCOCCOCCOCCOCCOCCOCCOCCOCCOCCOCCCNC(=O)C(O)C(O)C(OC1OC(CO)C(O)C(O)C1O)C(O)CO (stereo not given)', '> 100 µM'),
  ('CNC(=O)c1ccccc1[S+]1c2cccc3cccc(c23)C(=O)N1C (stereo not given)', '> 100 µM'),
  ('Cc1ccc(-c2cc(=O)c3cc(C)c(C)c(C(=O)O)c3o2)cc1', '> 100 µM'),
  ('Cn1c(N=[N+]=[N-])cc(=O)n(C)c1=O', '> 100 µM'),
  ('CC(C)(C)c1cc(/C=C/C(=O)CC(=O)/C=C/c2cc(C(C)(C)C)c(O)c(C(C)(C)C)c2)cc(C(C)(C)C)c1O', '> 50 µM'),
  ('CCOC(=O)c1nc2cc(C(F)(F)F)ccc2nc1Nc1ccc(F)cc1', '> 100 µM'),
  ('C=CCCC(On1c(-c2ccc(Cl)cc2)csc1=S)c1ccccc1 (stereo not given)', '> 100 µM'),
  ('CC(=O)OC(C)(C)/C=C/C(=O)[C@](C)(O)[C@H]1[C@H](O)C[C@@]2(C)[C@@H]3CC=C4[C@@H](C[C@H](O)C(=O)C4(C)C)[C@]3(CO)C(=O)C[C@]12C', '0.762 µM'),
  ('CCOc1ccc2nc(-c3cccc(OCC(=O)NC(C)C)c3)nc(Nc3ccc(-c4cn[nH]c4)cc3)c2c1', '3.12 µM'),
  ('NC(CC(=O)Nc1ccc(Cl)cc1)=Nc1ccccc1', '> 100 µM'),
  ('S=c1nc2sc3c(c2c(Nc2ccc(Br)cc2)[nH]1)CCN(N1CCc2c(sc4nc(=S)[nH]c(Nc5ccc(Br)cc5)c24)C1)C3', '> 50 µM'),
  ('COc1c(-c2cccs2)oc2c(CC(=O)O)cccc2c1=O', '> 100 µM'),
  ('CN(C(=O)C12C3(C(=O)C(C)(C)C)C4C5(C#N)C3C1(C(=O)C(C)(C)C)C5C42C(=O)C(C)(C)C)C(C)(C)C (stereo not given)', '> 50 µM'),
  ('CCCCCCCCC(O)C#CC(N)=O (stereo not given)', '20.5 µM'),
  ('CC(=O)NC(C)c1ccc(N=NN2CCCC2)cc1 (stereo not given)', '> 100 µM'),
  ('COc1c2c(c(CC=C(C)C)c3oc(=O)c(-c4ccc(O)cc4)c(O)c13)OC(C)(C)C=C2', '67.2 µM'),
  ('COc1cccc2c1-c1c(OC)cccc1SS2', '48.7 µM'),
  ('Nc1nc2ccc3[nH]ncc3c2c2c1CCCC2', '9.87 µM'),
  ('COc1nc2ccc(CNc3ccc(C(=O)O)cc3)cc2nc1OC', '> 10 µM'),
  ('CN1C(=O)C(=Cc2cn(Cc3ccccc3)c3ccccc23)C(=O)N(C)C1=O', '> 100 µM'),
  ('Cc1oncc1NC1=CC(=O)C(=O)c2ccccc21', '4.97 µM'),
  ('Cc1cc(Oc2cnc(=O)[nH]c2)cs1', '> 100 µM'),
  ('COc1ccc(NCc2cnc3nc(N)nc(N)c3c2C)cc1', '> 100 µM'),
  ('NC(=O)c1ncn2c(=O)n(CCl)nnc12', '> 100 µM'),
  ('Clc1cc(OCC23CC4CC(CC(C4)C2)C3)nc(OCC23CC4CC(CC(C4)C2)C3)n1', '> 100 µM'),
  ('CN(C)CCNC(=O)c1cccc2[nH]c(-c3ccncc3)nc12', '> 46.9 µM'),
  ('Cc1ccc(S(=O)(=O)C2c3nc4ccccc4cc3-c3nc4ccccc4nc32)cc1 (stereo not given)', '> 100 µM'),
  ('CSc1nc(SC)c2c(C(N)=S)[nH]nc2n1', '57.8 µM'),
  ('O=C(O)c1ccc2c3c(ncnc13)-c1ccccc1C2=O', '> 100 µM'),
  ('COc1cc(C=O)c(-c2cc3c(cc2C2(C)OCCS2)OCO3)c(OC)c1OC (stereo not given)', '13.6 µM'),
  ('c1ccc(Nn2c(CCCCCCCCc3nnc(COc4ccccc4)n3Nc3ccccc3)nnc2COc2ccccc2)cc1', '> 300 µM'),
  ('COc1ccc2c3c(c4ccccc4cc13)C(=O)N(CCN(C)CCN)C2=O', '1.19 µM');
